Every entry's value here was drawn from patent US8247211B2.

system: Staphylococcus sp.; test: In vitro antibacterial evaluation: minimum inhibitory concentration (MIC), broth dilution method; assay type: cell-based; conditions: strain GC 4544; broth dilution, 18 hours at 35° C.
Please go through the items and note down their MIC Staphylococcus aureus (GC 4544).

Some solved entries appear below for comparison.
- Compound: "CC(c1ccccc1)C1NC(=O)CNC(=O)C(CO)NC(=O)C(C(O)C2CNC(=N)N2C2OC(CO)C(O)C(O)C2O)NC(=O)C(C(O)C2CNC(=N)N2)NC(=O)C(Cc2ccc(OC3OC(CO)C(OC4OC5COC(Cc6ccc(Br)cc6)OC5C(O)C4O)C(O)C3O)cc2)NC1=O (stereo not drawn) [Example 118]"
  Target under test: "Staphylococcus sp."
  MIC Staphylococcus aureus (GC 4544): "<0.5 to 1 µg/mL"
- Compound: "CCCCCCCC1OCC2OC(OC3C(CO)OC(Oc4ccc(CC5NC(=O)C(C(C)c6ccccc6)NC(=O)CNC(=O)C(CO)NC(=O)C(C(O)C6CNC(=N)N6C6OC(CO)C(O)C(O)C6O)NC(=O)C(C(O)C6CNC(=N)N6)NC5=O)cc4)C(O)C3O)C(O)C(O)C2O1 (stereo not drawn) [Example 109]"
  Target under test: "Staphylococcus sp."
  MIC Staphylococcus aureus (GC 4544): "1 µg/mL"

Field: next compound
Query: MIC Staphylococcus aureus (GC 4544); subject: CSc1ccc(C2OCC3OC(OC4C(CO)OC(Oc5ccc(CC6NC(=O)C(C(C)c7ccccc7)NC(=O)CNC(=O)C(CO)NC(=O)C(C(O)C7CNC(=N)N7C7OC(CO)C(O)C(O)C7O)NC(=O)C(C(O)C7CNC(=N)N7)NC6=O)cc5)C(O)C4O)C(O)C(O)C3O2)cc1[N+](=O)[O-] (stereo not drawn) [Example 168]
2 µg/mL

---

test system: Enterococcus sp.; assay: In vitro antibacterial evaluation: minimum inhibitory concentration (MIC), broth dilution method; format: cell-based; details: Enterococcus faecalis (GC 4554); broth dilution, 18 hours at 35° C.
Text: […]
Quantity: MIC Enterococcus faecalis (GC 4554) (µg/mL)
Answers are plain numbers, in µg/mL.

- Compound: "COc1cc(-c2nc3cc(CC4NC(=O)C(C(C)c5ccccc5)NC(=O)CNC(=O)C(CO)NC(=O)C(C(O)C5CNC(=N)N5C5OC(CO)C(O)C(O)C5O)NC(=O)C(C(O)C5CNC(=N)N5)NC4=O)ccc3o2)cc(OC)c1OC (stereo not drawn) [Example 34]"
  Target under test: "Enterococcus sp."
  Experimental result: 32

Field: next compound
Query: MIC Enterococcus faecalis (GC 4554); subject: CC(c1ccccc1)C1NC(=O)CNC(=O)C(CO)NC(=O)C(C(O)C2CNC(=N)N2C2OC(CO)C(O)C(O)C2O)NC(=O)C(C(O)C2CNC(=N)N2)NC(=O)C(Cc2ccc(OC3OC(CO)C(OC4OC5COC(c6cccc(-c7ccccc7)c6)OC5C(O)C4O)C(O)C3O)cc2)NC1=O (stereo not drawn) [Example 154]
2

---

test system: Streptococcus sp.; assay: In vitro antibacterial evaluation: minimum inhibitory concentration (MIC), broth dilution method; type: cell-based; settings: broth dilution, 5×10^5 CFU/mL, 18 hours at 35° C.
Quantity: MIC Streptococcus pneumoniae (GC 4565) (mg/L)
One number for each entry, in mg/L.

Some solved entries appear below for comparison.
- Molecule: "COc1ccc(CC2OCC3OC(OC4C(CO)OC(Oc5ccc(CC6NC(=O)C(C(C)c7ccccc7)NC(=O)CNC(=O)C(CO)NC(=O)C(C(O)C7CNC(=N)N7C7OC(CO)C(O)C(O)C7O)NC(=O)C(C(O)C7CNC(=N)N7)NC6=O)cc5)C(O)C4O)C(O)C(O)C3O2)cc1 (stereo not drawn)"
  Experimental result: 0.12
- Molecule: "CC(c1ccccc1)C1NC(=O)CNC(=O)C(CO)NC(=O)C(C(O)C2CNC(=N)N2C2OC(CO)C(O)C(O)C2O)NC(=O)C(C(O)C2CNC(=N)N2)NC(=O)C(Cc2ccc(OC3OC(CO)C(OC4OC5COC(C6CCCC6)OC5C(O)C4O)C(O)C3O)cc2)NC1=O (stereo not drawn)"
  Experimental result: 0.12
- Molecule: "CC(c1ccccc1)C1NC(=O)CNC(=O)C(CO)NC(=O)C(C(O)C2CNC(=N)N2C2OC(CO)C(O)C(O)C2O)NC(=O)C(C(O)C2CNC(=N)N2)NC(=O)C(Cc2ccc(OC3OC(CO)C(OC4OC(CO)C(O)C5OC(CC67CC8CC(CC(C8)C6)C7)OC45)C(O)C3O)cc2)NC1=O (stereo not drawn)"
  Experimental result: 0.12
- Molecule: "CC(c1ccccc1)C1NC(=O)CNC(=O)C(CO)NC(=O)C(C(O)C2CNC(=N)N2C2OC(CO)C(O)C(O)C2O)NC(=O)C(C(O)C2CNC(=N)N2)NC(=O)C(Cc2ccc(OC3OC(CO)C(OC4OC5COC(c6cccs6)OC5C(O)C4O)C(O)C3O)cc2)NC1=O (stereo not drawn)"
  Experimental result: 0.25

Query: MIC Streptococcus pneumoniae (GC 4565); subject: COC1CCC2(C)C(CCC3C2CCC2(C)C(C(C)CCC4OCC5OC(OC6C(CO)OC(Oc7ccc(CC8NC(=O)C(C(C)c9ccccc9)NC(=O)CNC(=O)C(CO)NC(=O)C(C(O)C9CNC(=N)N9C9OC(CO)C(O)C(O)C9O)NC(=O)C(C(O)C9CNC(=N)N9)NC8=O)cc7)C(O)C6O)C(O)C(O)C5O4)CCC32)C1 (stereo not drawn)
4
